Hi there, I'd appreciate the recorded pIC50 for every entry that follows.
- Test system: J774.2
- measurement_description: cells
- Assay type: cell-based, mouse
- condition_set: Mus musculus; J774.2, 72 h, mean ± SE; read-out: IC50 (drug concentration that inhibits cell division by 50%)
Give bare numbers, as −log10 of the molar value.

In the examples that follow, each entry is paired with its recorded pIC50.
molecule | value_observed
CC(=O)O[C@H]1C(=O)[C@@]2(C)[C@H]([C@H](OC(=O)c3ccccc3)[C@]3(O)C[C@H](OC(=O)[C@H](O)[C@@H](NC(=O)c4ccccc4)c4ccccc4)C(C)=C1C3(C)C)[C@]1(OC(C)=O)CO[C@@H]1C[C@@H]2O | 7.17
CO[C@]12C=C[C@](C)(O1)[C@@H](OC(=O)/C=C/c1cn(C)cn1)C[C@H]1C(C)=CC[C@H](C(C)C)[C@H]1/C=C\2CO[C@@H]1OC[C@@H](O)[C@@H](O)[C@@H]1OC(C)=O | 6.40
C=C/C=C\[C@H](C)[C@H](OC(N)=O)[C@@H](C)[C@H](O)[C@@H](C)C/C(C)=C\[C@H](C)[C@@H](O)[C@@H](C)/C=C\[C@@H](O)C[C@@H]1OC(=O)[C@H](C)[C@@H](O)[C@H]1C [Disco, discodermolide] | 7.44

Then there is this molecule:
Entry CC[C@]1(O)C[C@@H]2CN(CCc3c([nH]c4ccccc34)[C@@](C(=O)OC)(c3cc4c(cc3OC)N(C)[C@H]3[C@@](O)(C(=O)OC)[C@H](OC(C)=O)[C@]5(CC)C=CCN6CC[C@]43[C@@H]65)C2)C1 : reported pIC50 = ? 8.22
